system: Pseudomonas aeruginosa; test: In vivo efficacy against Pseudomonas aeruginosa 5007 following p.o. administration.
ED50 by entry:
# value in mg/kg; strip the unit string

// worked examples, ED50 included
# returns recorded ED50 (system: Pseudomonas aeruginosa) for Cc1c(N2C[C@@H](C)N[C@@H](C)C2)c(F)cn2c(=O)c(C(=O)O)cc(C3CC3)c12 12.7

Find the measured ED50: item Cc1c(N2C[C@H]3CCN[C@H]3C2)c(F)cn2c(=O)c(C(=O)O)cc(C3CC3)c12 (single isomer, unassigned) , target or system Pseudomonas aeruginosa. 17.9

Param readout = ED50; param system = Pseudomonas aeruginosa; param query = Cc1c(N2CC[C@@H]3CNC[C@@H]32)c(F)cn2c(=O)c(C(=O)O)cc(C3CC3)c12 ; response: value 42.8

API: value(readout= ED50, system= Pseudomonas aeruginosa, query= Cc1c(N2CC[C@@H](N)C2)c(F)cn2c(=O)c(C(=O)O)cc(C3CC3)c12 ) 6.2

Form: Entry = NC1CCN(c2c(F)cn3c(=O)c(C(=O)O)cc(C4CC4)c3c2Cl)C1 (stereo not drawn) | System = Pseudomonas aeruginosa | ED50 = ____ 17

// moving on: another record for ED50
Entry Cc1c(N2CC[C@@H]([C@@H](C)N)C2)c(F)cn2c(=O)c(C(=O)O)cc(C3CC3)c12 , system Pseudomonas aeruginosa: what ED50 was measured? 24.4

* * *

target: DNA gyrase (Staphylococcus aureus) (UniProt P0A0K8+P20831); test: In vitro antibacterial activity against gram-positive organism Staphylococcus aureus NCTC-10649M; type: functional
Sequence (P0A0K8 2-644 limits assumed): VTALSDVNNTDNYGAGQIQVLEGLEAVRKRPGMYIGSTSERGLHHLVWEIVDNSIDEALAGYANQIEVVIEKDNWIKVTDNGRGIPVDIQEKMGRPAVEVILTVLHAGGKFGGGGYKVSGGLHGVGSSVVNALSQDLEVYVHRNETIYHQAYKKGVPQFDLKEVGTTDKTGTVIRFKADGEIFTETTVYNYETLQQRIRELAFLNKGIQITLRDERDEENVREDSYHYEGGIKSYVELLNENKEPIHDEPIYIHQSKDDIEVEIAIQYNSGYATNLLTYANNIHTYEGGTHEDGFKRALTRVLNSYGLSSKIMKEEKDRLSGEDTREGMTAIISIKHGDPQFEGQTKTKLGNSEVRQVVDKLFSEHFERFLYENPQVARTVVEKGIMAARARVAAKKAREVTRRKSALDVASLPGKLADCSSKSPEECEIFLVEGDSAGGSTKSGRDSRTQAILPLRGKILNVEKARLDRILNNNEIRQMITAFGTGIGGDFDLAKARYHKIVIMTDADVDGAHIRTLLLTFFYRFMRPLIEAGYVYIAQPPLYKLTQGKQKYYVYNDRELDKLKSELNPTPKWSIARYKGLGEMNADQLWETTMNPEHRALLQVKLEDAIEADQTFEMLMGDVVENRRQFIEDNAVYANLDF
Sequence (P20831 whole entry partner): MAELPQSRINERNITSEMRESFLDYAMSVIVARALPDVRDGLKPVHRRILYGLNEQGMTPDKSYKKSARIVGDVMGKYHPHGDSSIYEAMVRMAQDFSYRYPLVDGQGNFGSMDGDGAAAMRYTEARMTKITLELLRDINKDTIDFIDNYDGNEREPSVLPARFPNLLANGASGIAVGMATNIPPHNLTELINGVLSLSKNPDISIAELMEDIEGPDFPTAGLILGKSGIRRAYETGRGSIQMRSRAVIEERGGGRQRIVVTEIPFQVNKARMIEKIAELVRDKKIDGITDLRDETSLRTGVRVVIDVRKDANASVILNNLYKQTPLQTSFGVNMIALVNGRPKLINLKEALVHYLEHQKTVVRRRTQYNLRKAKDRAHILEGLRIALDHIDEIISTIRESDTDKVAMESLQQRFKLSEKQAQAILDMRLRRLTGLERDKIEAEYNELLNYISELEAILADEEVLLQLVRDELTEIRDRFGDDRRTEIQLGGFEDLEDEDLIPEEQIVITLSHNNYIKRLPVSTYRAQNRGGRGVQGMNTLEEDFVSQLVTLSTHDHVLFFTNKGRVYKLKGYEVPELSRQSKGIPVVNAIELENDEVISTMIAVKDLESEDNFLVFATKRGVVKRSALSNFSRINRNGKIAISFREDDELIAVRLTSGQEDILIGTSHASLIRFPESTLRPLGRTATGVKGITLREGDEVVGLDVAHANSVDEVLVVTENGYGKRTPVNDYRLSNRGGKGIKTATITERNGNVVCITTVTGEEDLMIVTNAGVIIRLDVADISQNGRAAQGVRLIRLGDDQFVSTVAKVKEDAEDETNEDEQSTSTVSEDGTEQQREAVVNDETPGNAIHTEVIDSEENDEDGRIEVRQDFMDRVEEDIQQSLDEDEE
Documented MIC across a set of compounds
The reply must contain the numeric value and, after it, the unit.

Examples with their reported MIC follow.
Could you share what MIC was measured for Cc1c(N2C[C@@H](N)[C@@H](C)C2)c(F)cn2c(=O)c(C(=O)O)cc(C3CC3)c12 , tested on DNA gyrase (Staphylococcus aureus) (UniProt P0A0K8+P20831)? 0.02 µg/mL

// map Cl.O=C(O)c1cn(C2CC2)c2cc(N3CCNCC3)c(F)cc2c1=O [CIPROFLOXACIN HYDROCHLORIDE] to recorded MIC (system: DNA gyrase (Staphylococcus aureus) (UniProt P0A0K8+P20831)) 0.39 µg/mL

Request body: readout MIC, system DNA gyrase (Staphylococcus aureus) (UniProt P0A0K8+P20831), query Cc1c(N2C[C@@H]3C[C@H]2CN3)c(F)cn2c(=O)c(C(=O)O)cc(C3CC3)c12 . Return the value. 0.2 µg/mL

Please tell me: MIC of Cc1c(N2C[C@@H]3CCN[C@@H]3C2)c(F)cn2c(=O)c(C(=O)O)cc(C3CC3)c12 (stereo in doubt; (S,S)45o) , system DNA gyrase (Staphylococcus aureus) (UniProt P0A0K8+P20831)? 0.05 µg/mL

Any idea what MIC came out for O=C(O)c1cc(-c2ccc(F)cc2F)c2nc(N3CCC(O)C3)c(F)cn2c1=O (stereo not drawn) on DNA gyrase (Staphylococcus aureus) (UniProt P0A0K8+P20831)? 0.05 µg/mL

Continuing:
Reported MIC for DNA gyrase (Staphylococcus aureus) (UniProt P0A0K8+P20831), given Cc1c(N2C[C@@H](C)N[C@@H](C)C2)c(F)cn2c(=O)c(C(=O)O)cc(C3CC3)c12 ? 0.1 µg/mL

API: value(readout=MIC, system=DNA gyrase (Staphylococcus aureus) (UniProt P0A0K8+P20831)) for record Cc1c(N2C[C@@H](N)C[C@@H]2C)c(F)cn2c(=O)c(C(=O)O)cc(C3CC3)c12 0.01 µg/mL

Recall the recorded MIC for Cc1c(N2CCC(O)C2)c(F)cn2c(=O)c(C(=O)O)cc(C3CC3)c12 (stereo not drawn) with DNA gyrase (Staphylococcus aureus) (UniProt P0A0K8+P20831) and state it. 0.005 µg/mL
